# Tested on: strains TA98
# Format: cell-based
# REPORTED_CONDITIONS: 5000 μg/plate, without S-9
PROPERTY_LABEL: Ames test: ratio of number of colonies to control

Considering Nc1ccc(N=Nc2ccc(S(=O)(=O)c3ccc(N=Nc4c(S(=O)(=O)O)cc5cc(S(=O)(=O)O)c(N=Nc6ccccc6)c(O)c5c4N)cc3)cc2)c(O)c1 [compound 2, reference compound] , its Ames test: ratio of number of colonies to control with strains TA98 was recorded as 3.38

Tested system strains TA98; Ames test: ratio of number of colonies to control recorded for Nc1ccc(N=Nc2ccc(Oc3cccc(Oc4ccc(N=Nc5cc(S(=O)(=O)O)c6cc(S(=O)(=O)O)c(N=Nc7ccccc7)c(O)c6c5N)cc4)c3)cc2)c(O)c1 [Ex. 9] was 1.15

Simply: Nc1ccc(N=Nc2ccc(Oc3cccc(Oc4ccc(N=Nc5c(S(=O)(=O)O)cc6cc(S(=O)(=O)O)c(N=Nc7ccccc7)c(O)c6c5N)cc4)c3)cc2)c(O)c1 [Ex. 1] , strains TA98, Ames test: ratio of number of colonies to control = 0.71

Form field, Ames test: ratio of number of colonies to control with strains TA98, item Cc1cc(-c2ccc(N=Nc3c(S(=O)(=O)O)cc4cc(S(=O)(=O)O)c(N=Nc5ccccc5)c(O)c4c3N)c(C)c2)ccc1N=Nc1ccc(N)cc1N [compound 1, reference compound] : 0.96

Measured on strains TA98, CCC(C)c1ccc(N=Nc2c(S(=O)(=O)O)cc3cc(S(=O)(=O)O)c(N=Nc4ccc(Oc5cccc(Oc6ccc(N=Nc7ccc(O)cc7O)cc6)c5)cc4)c(N)c3c2O)cc1 (centres unmarked) [Ex. 3] has a documented Ames test: ratio of number of colonies to control of 0.95

###

# Test system: strains TA98
# Assay type: cell-based
# REPORTED_CONDITIONS: 5000 μg/plate, without S-9
PROPERTY_LABEL: Ames test: ratio of number of colonies to control

The measured Ames test: ratio of number of colonies to control associated with "Nc1ccc(N=Nc2ccc(Oc3ccc(Oc4ccc(N=Nc5c(S(=O)(=O)O)cc6cc(S(=O)(=O)O)c(N=Nc7ccccc7)c(O)c6c5N)cc4)cc3)cc2)c(O)c1" reads 0.92

Field Ames test: ratio of number of colonies to control (entry "Nc1c(N=Nc2ccc(Oc3cccc(Oc4ccc(N=Nc5ccc(O)cc5O)cc4)c3)cc2)c(S(=O)(=O)O)cc2cc(S(=O)(=O)O)c(N=Nc3ccccc3)c(O)c12" ) reads 1.28

Briefly, Ames test: ratio of number of colonies to control measured for "Nc1ccc2c(O)c(N=Nc3ccccc3)c(S(=O)(=O)O)cc2c1N=Nc1ccc(Oc2ccc(Oc3ccc(N=Nc4ccc(O)cc4O)cc3)cc2)cc1" : 1.35

Briefly, Ames test: ratio of number of colonies to control measured for "Nc1c(N=Nc2ccc(Oc3ccc(Oc4ccc(N=Nc5ccc(O)cc5O)cc4)cc3)cc2)cc(S(=O)(=O)O)c2ccc(N=Nc3ccccc3)c(O)c12" : 0.97

###

Can you tell me Ames test: ratio of number of colonies to control for the items I'm about to list?
# Tested on: strains TA98
# Type: cell-based
# REPORTED_CONDITIONS: 313 μg/plate, without S-9
Just the number, please, no unit after it.

Field Ames test: ratio of number of colonies to control (entry Nc1ccc(N=Nc2ccc(S(=O)(=O)c3ccc(N=Nc4c(S(=O)(=O)O)cc5cc(S(=O)(=O)O)c(N=Nc6ccccc6)c(O)c5c4N)cc3)cc2)c(O)c1 [compound 2, reference compound] ) reads 1.29

Lookup result for "Nc1ccc(N=Nc2ccc(Oc3ccc(Oc4ccc(N=Nc5c(S(=O)(=O)O)cc6cc(S(=O)(=O)O)c(N=Nc7ccc(S(=O)(=O)O)cc7)c(O)c6c5N)cc4)cc3)cc2)c(O)c1" ; measured Ames test: ratio of number of colonies to control: 0.93

Looking up "Nc1ccc(N=Nc2ccc(Oc3cccc(Oc4ccc(N=Nc5c(S(=O)(=O)O)cc6cc(S(=O)(=O)O)c(N=Nc7ccccc7)c(O)c6c5N)cc4)c3)cc2)c(O)c1" , I found its Ames test: ratio of number of colonies to control recorded as 0.86
